test: Cytotoxicity against human SF539 cells assessed as cell growth at 10 uM after 72 hrs by SRB assay relative to control; assay type: functional; conditions: SF-539, 72 h, read-out: Activity
Attribute: growth at 10 µM
Only the number, expressed in %, is required.

# annotated cases, reported growth at 10 µM shown
Clc1ccc(-n2ncc3c(Nc4ccc(OCc5ccccc5)cc4)ncnc32)cc1: 92.4
c1ccc(COc2ccc(Nc3ncnc4c3cnn4-c3ccccc3)cc2)cc1: 99.6

What the record says about "Cc1ccc2nc(Nc3ncnc4c3cnn4-c3ccccc3)sc2c1" : growth at 10 µM is 101

Lab note: measured growth at 10 µM of "O=c1sc2cc(Nc3ncnc4c3cnn4-c3ccccc3)ccc2n1Cc1ccc(Cl)cc1" was 79.2

Lab book: growth at 10 µM of "O=C(NC1CCCCC1)c1ccc(Nc2ncnc3c2cnn3-c2ccccc2)cc1" noted as 43.7

Measured values drawn from ChEMBL document CHEMBL3751764 for this set.
